assay target: Luciferin 4-monooxygenase (Photinus pyralis) (UniProt P08659)
Sequence (P08659 whole entry, looked up): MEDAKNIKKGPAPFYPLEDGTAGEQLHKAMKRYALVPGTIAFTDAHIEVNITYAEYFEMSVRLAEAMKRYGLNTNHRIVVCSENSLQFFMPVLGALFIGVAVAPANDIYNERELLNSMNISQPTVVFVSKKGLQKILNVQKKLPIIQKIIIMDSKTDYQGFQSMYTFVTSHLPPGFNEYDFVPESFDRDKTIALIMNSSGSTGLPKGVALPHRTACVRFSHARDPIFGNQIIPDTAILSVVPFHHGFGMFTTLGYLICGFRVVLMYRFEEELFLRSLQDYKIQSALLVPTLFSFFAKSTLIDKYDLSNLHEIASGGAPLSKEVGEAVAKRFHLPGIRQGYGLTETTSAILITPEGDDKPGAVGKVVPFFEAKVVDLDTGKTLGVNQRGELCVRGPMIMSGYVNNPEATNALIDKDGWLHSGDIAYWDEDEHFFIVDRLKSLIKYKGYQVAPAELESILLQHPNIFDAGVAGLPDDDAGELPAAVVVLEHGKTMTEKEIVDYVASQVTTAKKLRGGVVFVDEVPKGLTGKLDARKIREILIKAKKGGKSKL
assay details: qHTS profiling assay for firefly luciferase inhibitor/activator using purifed enzyme and Km concentrations of substrates (counterscreen for miR-21 project); also: nearly all actives have a fitted effect of over 55% in size
experimental conditions: purified FLuc, luminescence inhibition; series mostly up to 57.5 µM
From the text: MLPCN Grant: 1 R21 NS059478-01 (miR-21 grant) Assay Provider: NCGC NCGC Assay Overview: Firefly (Photinus pyralis) luciferase is one of the most commonly used transcriptional reporters for a number of reasons. […] Although light produced in a bioluminescence reaction is of lower intensity than that produced during fluorescence emission, this is offset by little to no background light inherent to luminescent assays. […]
Among all 360,000 compounds or so, about 25,000 (6.9%) were called active. Not shown: some 9% with an inconclusive outcome. Calls follow the shape of the dose curve; as a rule, active = well fitted inhibition curve with a large enough effect; inconclusive = small, poorly fitted or top-dose-only effect; inactive = flat fitted curve, though single readings scatter. The list comes from a sample in which actives are over-represented; it also holds close analogues and randomly drawn compounds.
Write down the outcome that applies. Available outcomes: YES = active, NO = inactive

Past entries and their recorded results:
>>> df
                                   compound  class_label
0                CCCCSc1nnc(-c2ccc(C)cc2)o1          YES
1  O=C(/C=C/c1ccccc1[N+](=O)[O-])OCC(=O)N1CCCC1           NO
2  CC(C)CNC(=O)COC(=O)/C=C/c1ccccc1[N+](=O)[O-]           NO
3          Cc1ccc(-c2nnc(SCc3ccccc3C)o2)cc1          YES
4    Cc1cccc(C)c1OC(=O)CSc1nnc(-c2ccccc2)o1           NO

Ask: Tell me the recorded outcome of this test for CCOC(=O)CSc1nnc(-c2ccc([N+](=O)[O-])cc2)o1 .
Result: NO

Ask: Tell me the recorded outcome of this test for O=C(/C=C/c1ccccc1[N+](=O)[O-])OC1CCCCC1=O (stereo unspecified) .
Result: YES

Ask: Tell me the recorded outcome of this test for C/C(N)=C(/C#N)C(=O)COC(=O)c1cc(-c2cccc(Br)c2)nc2ccccc12 .
Result: NO

Ask: Tell me the recorded outcome of this test for CC1=CC(C)(C)N(C(=O)CSc2nnc(-c3ccccc3)o2)c2ccc(C)cc21 .
Result: NO

Ask: Tell me the recorded outcome of this test for Cn1ccc2cc(S(=O)(=O)N3CCCC(C(=O)NCc4ccccc4F)C3)ccc21 (stereo unspecified) .
Result: NO

Ask: Tell me the recorded outcome of this test for COc1ccc(CC(=O)N2CC(=O)Nc3ccc(Br)cc3C2c2ccc(F)cc2)cc1OC (stereo unspecified) .
Result: NO
